Record: IC50 reported on p38 MAP Kinase a (Homo sapiens).
Sequence (Q16539 whole entry): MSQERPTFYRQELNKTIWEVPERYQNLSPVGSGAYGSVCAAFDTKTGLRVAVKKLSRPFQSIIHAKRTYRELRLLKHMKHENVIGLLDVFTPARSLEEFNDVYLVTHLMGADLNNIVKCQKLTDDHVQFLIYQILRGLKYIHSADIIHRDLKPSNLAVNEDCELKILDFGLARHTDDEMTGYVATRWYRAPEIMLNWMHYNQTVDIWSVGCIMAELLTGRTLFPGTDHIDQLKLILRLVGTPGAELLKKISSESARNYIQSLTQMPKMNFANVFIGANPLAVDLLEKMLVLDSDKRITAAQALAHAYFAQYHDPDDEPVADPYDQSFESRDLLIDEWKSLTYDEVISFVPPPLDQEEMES

// below: answered compounds
TEST SMILES | ASSAYED SYSTEM | READING
Nc1c(C(=O)c2ccc(F)cc2)ccc(=O)n1-c1c(F)cc(CN[C@@H](Cc2ccccc2)C(=O)O)cc1F | p38 MAP Kinase a (Homo sapiens) | < 100 nM
CC(C)C[C@H](NCCc1ccc(-n2c(N)c(C(=O)c3ccc(Cl)cc3)ccc2=O)cc1)C(=O)OC1CCCC1 | p38 MAP Kinase a (Homo sapiens) | 100 to 1000 nM
CC(C)C[C@H](NCCCc1ccc(-n2c(N)c(C(=O)c3ccc(F)cc3)ccc2=O)cc1)C(=O)OC1CCCC1 | p38 MAP Kinase a (Homo sapiens) | 100 to 1000 nM
Cc1cc(C(=O)c2ccc(=O)n(-c3c(F)cc(OCCCN[C@@H](CC(C)C)C(=O)O)cc3F)c2N)ccc1F | p38 MAP Kinase a (Homo sapiens) | < 100 nM

Hi team, please reply with IC50 for each item in this list.
1. CC(C)C[C@@H](NCCCOc1cc(F)c(-n2c(N)c(C(=O)c3ccc(F)cc3F)ccc2=O)c(F)c1)C(=O)OC1CCCC1
2. Nc1c(C(=O)c2ccc(F)cc2F)ccc(=O)n1-c1ccc(CN[C@@H](Cc2ccccc2)C(=O)O)cc1
3. CC(C)C[C@H](NCCCOc1ccc(-n2c(N)c(C(=O)c3ccc(F)cc3)ccc2=O)cc1)C(=O)OC1CCCC1
4. Cc1cc(C(=O)c2ccc(=O)n(-c3ccc(CN[C@@H](Cc4ccccc4)C(=O)O)cc3)c2N)ccc1F
5. CC(C)(C)OC(=O)[C@H](Cc1ccccc1)NCCCOc1cc(F)c(-n2c(N)c(C(=O)c3ccc(F)cc3F)ccc2=O)c(F)c1
6. CC(C)C[C@H](NCCCOc1ccc(-n2c(N)c(C(=O)c3ccc(F)cc3F)ccc2=O)cc1)C(=O)OC1CCCC1
7. Nc1c(C(=O)c2ccc(F)cc2F)ccc(=O)n1-c1c(F)cc(OCCCN[C@H](C(=O)OC2CCCC2)C2CCCCC2)cc1F
8. Nc1c(C(=O)c2ccc(F)cc2F)ccc(=O)n1-c1ccc(CN[C@H](C(=O)OC2CCCC2)c2ccccc2)cc1

< 100 nM
< 100 nM
< 100 nM
< 100 nM
< 100 nM
< 100 nM
< 100 nM
< 100 nM

# map each compound to its IC50
1. CC(C)C[C@H](NCCc1ccc(-n2c(N)c(C(=O)c3ccc(F)cc3)ccc2=O)cc1)C(=O)OC1CCCC1
2. Cc1cc(C(=O)c2ccc(=O)n(-c3ccc(CN[C@@H](CC(C)C)C(=O)OC4CCCC4)cc3)c2N)ccc1F

["100 to 1000 nM", "100 to 1000 nM"]

Origin of values: patent US8044211B2
